# credit: PubChem BioAssay

# MEASUREMENT_NOTES: splicing luciferase reporter signal modulators, primary screen, spliceosome inhibition project, cell-based, HEK293, splice +/- reporter (AID 1101);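 also: HEK293 cells carrying a splicing-competent luciferase reporter gene; test concentration not given here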
# CONDITION: luminescence, 24 h, higher = more signal, called active from +8 up or from −8 down
// criterion not met strictly below -0.8 in z-score; criterion met otherwise

Example cases with answers are listed next.
CCOC(=O)C[C@H]1[C@H](OC(=O)c2ccccc2-c2ccccc2)[C@@H](NC(=O)CC(C)C)c2cc(OCCCO)ccc2N1C(=O)c1ccccc1 : criterion met
O=C1O[C@H](c2ccccc2)[C@H](c2ccccc2)N2[C@H]1[C@@H](C(=O)O)[C@]1(C(=O)Nc3ccc(C#CC4(O)CCCCCC4)cc31)[C@H]2c1ccccc1OCCO : criterion met
CC(C)N1CC=CC23O[C@@H]4/C=C\CCCOC(=O)C4[C@H]2C(=O)N(C(C)CO)[C@@H]3C1=O (some centres undefined) : criterion not met

Does z-score meet or surpass -0.8 for CC[C@@H](O[Si](C#C[Si](C(C)C)(C(C)C)C(C)C)(C(C)C)C(C)C)c1cn([C@H](CO)Cc2ccccc2)nn1 ?
criterion met

hey, is z-score for this one >= -0.8? COC(=O)[C@@]1(Cc2ccc(F)cc2)[C@H]2c3cc(C(=O)N(C)C)n(Cc4ccsc4Br)c3C[C@H]2CN1C(=O)c1ccccc1
criterion not met

Can CCCCN1CC=CC23O[C@@H]4/C=C\CCCOC(=O)C4[C@H]2C(=O)N(CCCCCCO)[C@@H]3C1=O (some centres undefined) be said to have z-score at or above -0.8?
criterion not met

Would you say COc1ccc(C(O)C2C=CC3C(=O)N(C)C(=O)C3N2Nc2ccccc2)cc1 (centres undefined) shows z-score at minimum -0.8?
criterion met

Test whether the molecule COc1ccc([Si](C)(C)[C@@H]2[C@@H](CC(=O)N3CCC[C@H]3CO)O[C@]3(C(=O)N(Cc4cccc(N5C(=O)c6cccc7cccc5c67)c4)c4ccccc43)[C@H]2C)cc1 records z-score of -0.8 or higher.
criterion met

Check this molecule for z-score at or above -0.8: C=CCNC(=O)[C@H]1[C@@H]2C(=O)O[C@@H](c3ccccc3)[C@@H](c3ccccc3)N2[C@@H](c2ccc(O)cc2)[C@]12C(=O)N(C(=O)OCCOC)c1ccc(C#Cc3ccc(OC)cc3)cc12
criterion met

###

# MEASUREMENT_NOTES: basal MM1S mitochondrial membrane potential changes, profiling panel, cell-based, JC-1 fluorescence, 24 h, 100 nL compound (AID 1170); also: test concentration not given here
# CONDITION: higher = more signal
ENDPOINT: z-score
Answer using only a numeral; do not append any unit.

For orientation, consider the following solved cases.
CCCCC(=C=CC[C@@H](O)c1ccc(OCCO)cc1)CCO : 1.03
OCCCc1cc[n+](Cc2cc3c(cc2Br)OCO3)cc1 : 1.39
C=C(C(=O)CC[C@@H](OC(=O)c1ccccc1-c1ccccc1C(=O)O)c1ccc(CO)o1)C(C)C : -0.0298

Lookup result for Cc1cccc([C@H]2C[C@H]3C(Br)=C[C@@]2(CO)C(=O)[C@]32CO2)c1 ; measured z-score: -0.876

For C=C(C)C1CN([C@H](CO)c2ccccc2)C(=O)/C1=C\c1ccccc1 (stereo partly drawn) the molecule record lists z-score as -1.06

The molecule listed as CCCCCCc1nc(-c2ccc(OC)nc2)c(C)c2c1[Si](C(C)C)(C(C)C)OC2 has a reported z-score of 0.498

For this molecule ( C=C(C(=O)CC[C@@H](OC(=O)c1ccccc1-c1ccccc1C(=O)O)c1ccc(OCCO)cc1)C(C)C ), measured z-score is -0.547

Sure, the documented z-score for CCCCC=C[C@@H](NC(=O)C(C)(C)C)c1ccccc1 is -2.82

Value of z-score reported for the molecule CN1C2C=C(c3ccc(CO)cc3)C(C3C(=O)N(C(N)=O)C(=O)C32)C1C1CC1 (stereo not drawn) is 0.326

Reported z-score ( CCOC(=O)C[C@H]1[C@H](OC(=O)c2cc3ccccc3oc2=O)[C@@H](NC(=O)Cc2ccc(OC)cc2)c2cc(OCCCO)ccc2N1C(=O)Cc1ccc(OC)cc1 ) = -0.985

z-score recorded for this molecule, COCCOC(=O)N1C(=O)[C@@]2(c3cc(C#CC4=CCCCC4)ccc31)[C@H](C(=O)N1CCCCCCC1)[C@H]1C(=O)O[C@H](c3ccccc3)[C@H](c3ccccc3)N1[C@@H]2c1ccccc1OCCO , is -0.982

molecule COc1ccc(C(=O)Nc2ccc(CN3C(=O)[C@]4(O[C@H](CC(=O)N(CCO)Cc5ccccc5)[C@@H]([Si](C)(C)c5ccc(OC)cc5)[C@@H]4C)c4ccccc43)cc2)cc1 , z-score observed: -0.692

For this molecule ( CC(C)c1ccc(NN2C(C(O)C3CCCCC3)C=CC3C(=O)N(c4ccccc4)C(=O)C32)cc1 (stereo not drawn) ), measured z-score is -1.36

get_value(item= C=CCNC(=O)[C@@H]1[C@H]2C(=O)O[C@H](c3ccccc3)[C@H](c3ccccc3)N2[C@H](c2ccc(O)cc2)[C@@]12C(=O)Nc1ccc(C#CC3=CCCCC3)cc12 , readout=z-score) returns -1.2

Entry CC(C)(C)OC(=O)CC[C@@]1(C(=O)N2CCOCC2)N=C(c2ccc(OCCCO)cc2)O[C@@H]1c1ccccc1CN=[N+]=[N-] ; z-score = -0.567

Entry O=C1O[C@H](c2ccccc2)[C@H](c2ccccc2)N2[C@H]1[C@@H](C(=O)Nc1nc3ccccc3s1)[C@]1(C(=O)Nc3ccccc31)[C@H]2c1ccccc1OCCO , z-score reported as -1.37

Record COC(=O)[C@@]1(Cc2ccc(F)cc2)[C@H]2c3cc(C(=O)N(C)C)n(Cc4ccc(C(F)(F)F)nc4)c3C[C@H]2CN1C(=O)c1ccccc1 . Reported z-score: -1.48

Consider CC1CC/C=C\[C@H]2OC34C=CCN(CCN5CCOCC5)C(=O)[C@H]3N(C(CO)C(C)C)C(=O)[C@@H]4C2C(=O)O1 (stereo partly drawn) . Its measured z-score is -0.308

For record Cc1ccc(S[C@]2(C(=O)NCCN3CCOCC3)CC(=O)N(C(C)C)[C@@H]2c2ccc(CO)cc2I)cc1 the listed z-score is -0.635

Record C=CCNC(=O)[C@H]1[C@@H]2C(=O)O[C@@H](c3ccccc3)[C@@H](c3ccccc3)N2[C@@H](c2ccc(OCCO)cc2)[C@]12C(=O)N(C(=O)OCCOC)c1ccc(C#CCC(C(=O)OC)C(=O)OC)cc12 . Reported z-score: -1.58

// [N-]=[N+]=NCc1ccccc1[C@H]1OC(c2ccc(OCCCO)cc2)=N[C@@]1(Cc1ccccc1N=[N+]=[N-])C(N)=O : z-score value = -0.928

Quick note, z-score for COc1ccc(C#Cc2ccc3c(c2)[C@]2(C(=O)N3)[C@H](c3ccccc3OCCO)N3[C@H](c4ccccc4)[C@H](c4ccccc4)OC(=O)[C@H]3[C@@H]2C(=O)NC[C@H](O)c2ccccc2)cc1 landed at -1.66

Please fill in: z-score reported for O=C1C[C@@](C(=O)NCC(F)(F)F)(c2ccc([N+](=O)[O-])cc2)[C@@H](c2ccc(CO)cc2I)N1CC12CC3CC(CC(C3)C1)C2 = -2.17

z-score recorded for this molecule, C=CCNC(=O)[C@H]1[C@@H]2C(=O)O[C@@H](c3ccccc3)[C@@H](c3ccccc3)N2[C@@H](c2ccc(OCCO)cc2)[C@]12C(=O)Nc1ccc(C#Cc3ccc(OC)cc3)cc12 , is -0.867

Notebook: O=C1C2C=CC(C(O)C3CCCCC3)N(Nc3ccccc3F)C2C(=O)N1c1ccccc1 (stereo not drawn) , z-score read as -0.433

Lookup result for COC(=O)[C@@]1(Cc2ccc(F)cc2)[C@H]2c3cc(C(=O)N4CCCC4)n(CCc4c[nH]c5cc(F)ccc45)c3C[C@H]2CN1C(=O)c1ccccc1 ; measured z-score: -1.21

Query CC(C)[Si](C#Cc1ccccc1)(O[C@H](c1ccccc1)c1cn(Cc2ccccc2)nn1)C(C)C yields z-score of -0.0328

// sample COC(=O)[C@@]1(Cc2ccccc2)[C@H]2c3cc(C(=O)N(C)C)n(Cc4ccc(Cl)c(C(F)(F)F)c4)c3C[C@H]2CN1C(=O)c1ccccc1 , its z-score was -1.24

###

Here the recorded composite z-score is given for each entry.
# SYSTEM: Calmodulin-1 (Homo sapiens)
# MEASUREMENT_NOTES: calcium-bound CALM1 binders on microarrays, profiling panel, artefact control for SMM control-protein annotation, biochemical, small-molecule microarray, Cy5-labelled CALM1, plus calcium (AID 1112);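 also: score merges spot fluorescence with signal to noise from triplicate slides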
# CONDITION: Cy5-CALM1 binding fluorescence, higher = more signal
Response field accepts a number only; no unit should be typed.

In the examples that follow, each entry is paired with its recorded composite z-score.
C=C(C(=O)CC[C@H](OC(=O)c1ccccc1-c1ccccc1C(=O)O)c1ccc(OCCO)cc1)C(C)C : -0.37
OCCCc1cc[n+](Cc2cc3c(cc2Br)OCO3)cc1 : 0.172
COC(=O)C1=CC(CCCO)=CC(c2ccc(CN3CCCC3)cc2)N(C)C=C1C(=O)OC (stereo not drawn) : 0.316
CCCC[C@@H](O)C1=C(C)Cn2c(=O)n(-c3ccccc3)c(=O)n2[C@H]1CO : -0.122
CCCCN1CC=CC23O[C@@H]4C=CCCOC(=O)C4[C@H]2C(=O)N(CCO)[C@@H]3C1=O (stereo partly drawn) : -0.436
C=CCOC(=O)[C@H]1[C@@H]2C(=O)O[C@@H](c3ccccc3)[C@@H](c3ccccc3)N2[C@@H](c2ccc(OCCOC(=O)[C@@H]3C[C@@H]4C(=O)N[C@@H](Cc5ccccc5)C(=O)N4[C@@H]3c3ccc(O)cc3)cc2)[C@]12C(=O)Nc1ccc(I)cc12 : 0.242
C[N+](C)(C)CCCC[C@@H]1NC(=O)[C@H]2C[C@@H](C(=O)O)[C@@H](c3ccc(O)cc3)N2C1=O : 0.11

Note to self: composite z-score recorded for C=CC[C@H](O)c1ccc(O)c(F)c1 was -0.589
